# experimental.target: T1, Human C3 (Complement tech cat #A113c) (human, UniProt P01024 23-1663)
# T1 construct: Purified protein immobilised by amine coupling in the SPR assay; in the haemolysis assay it is the C3 of diluted human serum; Native C3 consists of a beta and an alpha chain cut from one precursor; also called C3 protein
# T1 sequence (P01024 23-1663 limits assumed): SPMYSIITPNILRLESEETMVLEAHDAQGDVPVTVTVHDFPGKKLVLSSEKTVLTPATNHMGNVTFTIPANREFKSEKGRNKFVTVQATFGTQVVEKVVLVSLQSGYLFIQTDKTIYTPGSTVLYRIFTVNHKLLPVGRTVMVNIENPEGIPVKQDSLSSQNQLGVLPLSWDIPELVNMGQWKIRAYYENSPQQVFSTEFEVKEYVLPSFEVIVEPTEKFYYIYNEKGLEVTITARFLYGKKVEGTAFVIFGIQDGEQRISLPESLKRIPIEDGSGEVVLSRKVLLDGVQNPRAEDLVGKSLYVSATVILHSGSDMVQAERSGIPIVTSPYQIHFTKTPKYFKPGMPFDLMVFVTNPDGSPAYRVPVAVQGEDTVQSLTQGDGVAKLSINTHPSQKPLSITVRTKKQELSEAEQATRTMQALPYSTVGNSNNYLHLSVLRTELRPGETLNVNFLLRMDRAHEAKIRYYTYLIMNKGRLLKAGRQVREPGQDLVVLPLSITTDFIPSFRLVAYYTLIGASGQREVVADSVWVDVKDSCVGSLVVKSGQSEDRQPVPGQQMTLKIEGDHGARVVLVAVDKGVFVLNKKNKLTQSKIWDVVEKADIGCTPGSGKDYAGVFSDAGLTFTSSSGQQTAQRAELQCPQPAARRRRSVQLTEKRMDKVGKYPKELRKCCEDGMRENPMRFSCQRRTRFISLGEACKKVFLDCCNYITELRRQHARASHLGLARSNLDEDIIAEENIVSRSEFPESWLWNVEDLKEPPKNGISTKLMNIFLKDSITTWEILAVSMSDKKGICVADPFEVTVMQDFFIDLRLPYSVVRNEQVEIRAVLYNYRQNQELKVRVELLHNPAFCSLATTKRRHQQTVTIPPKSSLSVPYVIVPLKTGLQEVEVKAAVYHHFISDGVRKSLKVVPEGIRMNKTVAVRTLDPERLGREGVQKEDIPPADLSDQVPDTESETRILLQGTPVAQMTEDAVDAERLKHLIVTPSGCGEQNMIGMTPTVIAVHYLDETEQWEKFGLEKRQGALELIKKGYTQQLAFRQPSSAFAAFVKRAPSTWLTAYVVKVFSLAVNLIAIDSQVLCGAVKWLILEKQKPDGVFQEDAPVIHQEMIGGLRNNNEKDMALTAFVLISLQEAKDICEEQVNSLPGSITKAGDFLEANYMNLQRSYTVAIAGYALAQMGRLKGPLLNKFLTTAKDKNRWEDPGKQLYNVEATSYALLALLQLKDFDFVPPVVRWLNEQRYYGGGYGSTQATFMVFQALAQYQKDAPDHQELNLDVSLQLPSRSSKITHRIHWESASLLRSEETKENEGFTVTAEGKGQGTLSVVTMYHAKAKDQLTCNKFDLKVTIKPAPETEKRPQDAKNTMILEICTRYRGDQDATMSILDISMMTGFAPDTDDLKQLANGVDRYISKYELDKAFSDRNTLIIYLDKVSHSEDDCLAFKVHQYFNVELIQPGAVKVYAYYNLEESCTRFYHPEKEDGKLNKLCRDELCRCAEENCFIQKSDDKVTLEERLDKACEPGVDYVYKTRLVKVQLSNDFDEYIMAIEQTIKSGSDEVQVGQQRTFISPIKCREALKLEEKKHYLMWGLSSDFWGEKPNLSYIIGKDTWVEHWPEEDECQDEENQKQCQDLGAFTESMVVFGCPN
# method.description: SPR (Biacore T200), human C3 immobilised, peptide injected, 1:1 fit
Positions of bridges follow the written chain, without caps; N, C: chain ends. Non-standard residues stand in square brackets, D forms with d. Trp(1-Me) = Cn1cc(C[C@H](N)C(=O)O)c2ccccc21; 1Nal = N[C@@H](Cc1cccc2ccccc12)C(=O)O; AEEA = NCCOCCOCC(=O)O; Sar = CNCC(=O)O
observable: pKd
Convention used: pKd is expressed as -log10 of the molar concentration.

Reference set, count: 2
binder: Ac-ICIWQDWGEHRCS-NH2 (disulfide 2-12; SMILES CC[C@H](C)[C@H](NC(C)=O)C(=O)N[C@H]1CSSC[C@@H](C(=O)N[C@@H](CO)C(N)=O)NC(=O)[C@H](CCCNC(=N)N)NC(=O)[C@H](Cc2c[nH]cn2)NC(=O)[C@H](CCC(=O)O)NC(=O)CNC(=O)[C@H](Cc2c[nH]c3ccccc23)NC(=O)[C@H](CC(=O)O)NC(=O)[C@H](CCC(N)=O)NC(=O)[C@H](Cc2c[nH]c3ccccc23)NC(=O)[C@H]([C@@H](C)CC)NC1=O) [Compound 21]
recorded.value: 7.80
//
binder: Ac-SEFCI[Trp(1-Me)]QDWGEHRC[Sar]EGE-{AEEA-AEEA-K(γGlu-Gly-γGlu-17-carboxy-heptadecanoyl)-NH2} (disulfide 4-14) [Compound 123]
recorded.value: 7.96

Value of pKd reported for the binder Ac-FCI[1Nal]QDWGEHRCTGAES-NH2 (disulfide 2-12; SMILES CC[C@H](C)[C@@H]1NC(=O)[C@@H](NC(=O)[C@H](Cc2ccccc2)NC(C)=O)CSSC[C@@H](C(=O)N[C@H](C(=O)NCC(=O)N[C@@H](C)C(=O)N[C@@H](CCC(=O)O)C(=O)N[C@@H](CO)C(N)=O)[C@@H](C)O)NC(=O)[C@H](CCCNC(=N)N)NC(=O)[C@H](Cc2c[nH]cn2)NC(=O)[C@H](CCC(=O)O)NC(=O)CNC(=O)[C@H](Cc2c[nH]c3ccccc23)NC(=O)[C@H](CC(=O)O)NC(=O)[C@H](CCC(N)=O)NC(=O)[C@H](Cc2cccc3ccccc23)NC1=O) [Compound 63] is 8.37
